// reported protein stability index per item
B1: JUNB (parent)
chain: FVKALDDLHKMNHVTPPNVSLGAT

variants of: B1; test: protein stability index of a GFP-peptide fusion (GPS, HEK-293T) (PSI 1-6); higher = more stable; details: c terminus: a fixed tail appended;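 further: lentivirally expressed fusions sorted by FACS into six bins by GFP to DsRed ratio, PSI derived from sequencing read proportions per bin multiplied by bin number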
value type: protein stability index

mut	value type	measured
L21H	protein stability index	1.74
D7E	protein stability index	1.57
G22R	protein stability index	1.2
K3N	protein stability index	1.86
P17C	protein stability index	2.08
A23F	protein stability index	1.41
N18L	protein stability index	1.93
L5P	protein stability index	2.2
V19I	protein stability index	1.82
V19Y	protein stability index	1.47
T24G	protein stability index	1.56
T24S	protein stability index	2
K10N	protein stability index	2.07
N12C	protein stability index	2.34
M11V	protein stability index	1.7
V19T	protein stability index	1.56
K10A	protein stability index	2.79
V19D	protein stability index	1.94
V19F	protein stability index	1.43
A23W	protein stability index	1.72
K10I	protein stability index	2.35
K10M	protein stability index	1.72
V14D	protein stability index	1.87
G22M	protein stability index	1.72
D6F	protein stability index	3.31
M11S	protein stability index	2.11
L21A	protein stability index	2.17
M11C	protein stability index	2.31
N12S	protein stability index	2.12
L5S	protein stability index	1.72
V19W	protein stability index	3.57
D7M	protein stability index	2.62
L5N	protein stability index	2.38
S20L	protein stability index	1.56
T15A	protein stability index	2.79
K10L	protein stability index	1.72
G22V	protein stability index	2.27
L5V	protein stability index	1.86
L5G	protein stability index	1.99
A23Y	protein stability index	1.65
T15V	protein stability index	1.6
K3G	protein stability index	2.12
K10D	protein stability index	2.22
P17E	protein stability index	1.48
V19Q	protein stability index	1.79
V2H	protein stability index	3.07

Origin of measurements: the supplement of paper PMC10567573
